# Tested on: 755483-174-R-J1-PDC complex spheroid growth, percent test/control;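 also: spheroids exposed to compounds for seven days before readout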
# runDescription: Anticancer human tumor 755483-174-R-J1-PDC patient-derived rhabdomyosarcoma cell line growth inhibition [Asc]
# measurementContext: curve of first compound; second compound 0.1 µM
We begin with a simple list: items and their reported IC50.

compound: COc1c(OCCCN2CCOCC2)ccc2c3n(c(=NC(=O)c4cnc(N)nc4)nc12)CCN3 + Cc1c(S(C)(=O)=O)c(-c2cc(F)cc(N3CCN(c4ccc(NS(=O)(=O)c5ccc(NC(CCN6CCC(C(=O)OCCCP(=O)(O)O)CC6)CSc6ccccc6)c(S(=O)(=O)C(F)(F)F)c5)cc4)CC3)c2)c(-c2ccc(Cl)cc2)n1C(C)C
system: 755483-174-R-J1-PDC complex spheroid growth, percent test/control;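 also: spheroids exposed to compounds for seven days before readout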
IC50: < 3.16 nM

The compound listed as Cn1ncnc1[C@H]1c2n[nH]c(=O)c3cc(F)cc(c23)N[C@@H]1c1ccc(F)cc1 + CNC(C)C(=O)NC1CN(S(=O)(=O)c2cccc(S(=O)(=O)N3CCC4CCC(C(=O)NC(c5ccccc5)c5ccccc5)N4C(=O)C(NC(=O)C(C)NC)C3)c2)CCC2CCC(C(=O)NC(c3ccccc3)c3ccccc3)N2C1=O shows IC50 equal to < 0.316 nM
